System: HL-60
Assay: Cytotoxicity against human HL60 cells after 24 hrs by MTT assay
Assay type: cell-based
Conditions: HL-60, 24 h
pIC50: −log10 of the molar value.
measurement_type: pIC50

Q. Request the reported pIC50 associated with CNCCCC1=C2CC[C@H]([C@H](C)CCCC(C)C)[C@@]2(C)CCC1
A. < 4.00

Q. What value of pIC50 has been reported for the following compound? CC(C)CCC[C@@H](C)[C@H]1CCC2=C(CCCN(C)C)CCC[C@@]21C
A. < 4.00

Q. Fill in the blank: the reported pIC50 of CN(C)Cc1ccc(C2CCC(N(C)C(=O)c3ccc(Cl)cc3)CC2)cc1 (stereo not drawn) is ____.
A. < 4.30
